tested_target: Mtb CYP121A1 (Mycobacterium tuberculosis, UniProt P9WPP7)
Construct: made in house
Sequence (P9WPP7 whole entry): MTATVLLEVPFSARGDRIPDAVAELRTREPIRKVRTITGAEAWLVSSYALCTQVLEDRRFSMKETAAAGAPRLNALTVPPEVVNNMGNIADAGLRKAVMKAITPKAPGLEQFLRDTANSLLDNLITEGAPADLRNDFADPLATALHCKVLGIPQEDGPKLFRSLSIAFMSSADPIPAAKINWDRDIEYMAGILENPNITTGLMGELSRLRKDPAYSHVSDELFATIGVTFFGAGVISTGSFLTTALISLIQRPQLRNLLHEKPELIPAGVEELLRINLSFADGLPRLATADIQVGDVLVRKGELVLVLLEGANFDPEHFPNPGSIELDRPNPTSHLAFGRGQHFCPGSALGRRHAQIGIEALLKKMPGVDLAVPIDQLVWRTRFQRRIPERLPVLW
method_notes: biochemical
Assay type: binding
condition_summary: UV-vis absorbance, Soret band shift on ligand binding
Field: Soret shift. Provide a value for each of the molecules that follow.

Soret shift recorded for this molecule, COc1ccc(-c2nn(-c3ccc(Cl)cc3)cc2Cn2cncn2)cc1 [12b] , is 417 to 417 nm

Soret shift recorded for this molecule, CCCOc1ccc(-c2nn(-c3ccc(Cl)cc3)cc2Cn2ccnc2)cc1 [11f] , is 417 to 419 nm

Soret shift recorded for this molecule, CC(C)Oc1ccc(-c2nn(-c3ccc(Cl)cc3)cc2Cn2ccnc2)cc1 [11h] , is 417 to 419 nm

Soret shift recorded for this molecule, COc1ccc(-c2nn(-c3ccc(F)cc3)cc2Cn2ccnc2)cc1 [11a] , is 417 to 421 nm

Soret shift recorded for this molecule, CC(C)Oc1ccc(-c2nn(-c3ccc(F)cc3)cc2Cn2ccnc2)cc1 [11g] , is 417 to 419 nm

###

System: Mtb CYP121A1 (Mycobacterium tuberculosis, UniProt P9WPP7) | Read-out: Kd
Enter your answer as a number in µM; do not include the unit.

Kd recorded for this compound, COc1ccc(-c2nn(-c3ccc(F)cc3)cc2Cn2ccnc2)cc1 [11a] , is 65

Kd recorded for this compound, CC(C)Oc1ccc(-c2nn(-c3ccc(Cl)cc3)cc2Cn2ccnc2)cc1 [11h] , is 17.7

Kd recorded for this compound, CCCOc1ccc(-c2nn(-c3ccc(F)cc3)cc2Cn2ccnc2)cc1 [11e] , is 22.3

Kd recorded for this compound, CCOc1ccc(-c2nn(-c3ccc(Cl)cc3)cc2Cn2ccnc2)cc1 [11d] , is 18.8

Kd recorded for this compound, CCOc1ccc(-c2nn(-c3ccc(F)cc3)cc2Cn2ccnc2)cc1 [11c] , is 54

Kd recorded for this compound, CCCOc1ccc(-c2nn(-c3ccc(Cl)cc3)cc2Cn2ccnc2)cc1 [11f] , is 11.7

Kd recorded for this compound, CC(C)Oc1ccc(-c2nn(-c3ccc(F)cc3)cc2Cn2ccnc2)cc1 [11g] , is 38.5

###

tested_target: Mtb CYP121A1 (Mycobacterium tuberculosis)
Construct: made in house
method_notes: biochemical
Format: binding
condition_summary: UV-vis absorbance, Soret band shift on ligand binding
Field: Soret shift. Provide a value for each of the compounds that follow.

Soret shift recorded for this compound, CCOc1ccc(-c2nn(-c3ccc(Cl)cc3)cc2Cn2ccnc2)cc1 [11d] , is 417 to 420 nm

Soret shift recorded for this compound, CCCOc1ccc(-c2nn(-c3ccc(F)cc3)cc2Cn2ccnc2)cc1 [11e] , is 417 to 420 nm

Soret shift recorded for this compound, CCOc1ccc(-c2nn(-c3ccc(F)cc3)cc2Cn2ccnc2)cc1 [11c] , is 417 to 422 nm

###

Field: melting point. Provide a value for each of the compounds that follow.

melting point recorded for this compound, CCOc1ccc(-c2nn(-c3ccc(F)cc3)cc2Cn2cncn2)cc1 [12c] , is 140 to 142 °C

melting point recorded for this compound, CC(C)Oc1ccc(-c2nn(-c3ccc(F)cc3)cc2Cn2ccnc2)cc1 [11g] , is 96 to 98 °C

melting point recorded for this compound, COc1ccc(-c2nn(-c3ccc(Cl)cc3)cc2Cn2cncn2)cc1 [12b] , is 124 to 126 °C

melting point recorded for this compound, CC(C)Oc1ccc(-c2nn(-c3ccc(F)cc3)cc2Cn2cncn2)cc1 [12g] , is 118 to 120 °C

melting point recorded for this compound, CC(C)Oc1ccc(-c2nn(-c3ccc(Cl)cc3)cc2Cn2ccnc2)cc1 [11h] , is 98 to 100 °C
